Consider the following pEC50 values measured on Peroxisome proliferator-activated receptor alpha (Homo sapiens, UniProt Q07869).
// field semantics: pEC50 = negative decimal log of concentration (mol/L)

Q: Name the reported pEC50 value associated with the molecule O=C(O)c1cccc(NCc2ccc(OCc3ccc(Br)cc3)cc2)c1
A: 6.01

Q: Name the reported pEC50 value associated with the molecule O=C(O)c1cc(F)cc(NCc2ccc(OCc3ccc(F)cc3)cc2)c1
A: 6.24

Q: Name the reported pEC50 value associated with the molecule O=C(O)c1cccc(NCc2ccc(OCc3ccc(Cl)cc3)cc2)c1
A: 6.08

Q: Name the reported pEC50 value associated with the molecule Cc1cc(OCc2ccc(F)cc2)ccc1CNc1cccc(C(=O)O)c1
A: 5.84

----------
A collection of molecules and their measured -TdeltaS
tested_on: Peroxisome proliferator-activated receptor alpha (Homo sapiens)
Sequence (whole entry): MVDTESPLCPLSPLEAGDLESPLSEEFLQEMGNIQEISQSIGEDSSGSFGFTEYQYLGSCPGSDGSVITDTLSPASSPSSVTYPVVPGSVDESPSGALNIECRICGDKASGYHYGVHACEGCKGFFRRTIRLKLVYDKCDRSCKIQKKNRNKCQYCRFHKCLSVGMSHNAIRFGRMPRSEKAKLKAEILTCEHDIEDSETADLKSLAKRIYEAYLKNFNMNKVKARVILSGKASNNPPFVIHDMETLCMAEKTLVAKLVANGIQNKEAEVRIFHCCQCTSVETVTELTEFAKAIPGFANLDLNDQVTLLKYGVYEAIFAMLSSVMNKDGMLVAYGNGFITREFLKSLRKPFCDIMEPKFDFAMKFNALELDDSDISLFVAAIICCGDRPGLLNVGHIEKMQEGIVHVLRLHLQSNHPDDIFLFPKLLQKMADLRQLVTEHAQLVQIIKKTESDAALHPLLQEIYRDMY
assay_details: Binding affinity to His tagged PPARalpha LBD (unknown origin) expressed in Escherichia coli Rosetta (DE3) assessed as change in entropy at 25 degree C by isothermal titration calorimetry
Value and unit, in that order.

Known -TdeltaS results, listed for orientation:
- COc1ccc(COc2ccc(CNc3cccc(C(=O)O)c3)cc2)cc1: 5.71 kcal/mol
- Cc1cc(CNc2cccc(C(=O)O)c2)ccc1OCc1ccc(F)cc1: -1.65 kcal/mol
- O=C(O)c1cccc(NCc2ccc(OCc3ccc(F)cc3)cc2)c1: 0.98 kcal/mol

We now examine a further molecule.
Q: Name the reported -TdeltaS value associated with the molecule Cc1nc(-c2ccc(C(F)(F)F)cc2)sc1C(=O)NCc1ccc(OC(C)(C)C(=O)O)cc1
A: 4.9 kcal/mol

----------
tested_on: Peroxisome proliferator-activated receptor alpha (Homo sapiens) (UniProt Q07869)
assay_details: Agonist activity at human PPARalpha expressed in nonhuman mammalian cells assessed as maximal increase in receptor transcriptional activity incubated for 22 to 24 hrs by luciferase reporter gene assay relative to GW590735
Format: cell-based
A collection of compounds and their measured fold change (FC)
Write the number on its own, no unit after it.

Known fold change (FC) results, listed for orientation:
* O=C(O)c1cccc(NCc2ccc(OCc3cc(F)cc(F)c3)cc2)c1 | 1.1
* Cc1cc(CNc2cccc(C(=O)O)c2)ccc1OCc1cc(F)cc(F)c1 | 1.6
* CC(C)(Oc1ccc(NCc2ccc(OCc3ccc(F)cc3)cc2)cc1)C(=O)O | 1.8
* C[C@H](Oc1ccc(CNc2cccc(C(=O)O)c2)cc1)c1ccc(F)cc1 | 1.6

We now examine a further compound.
Q: Value wanted: fold change (FC) (Peroxisome proliferator-activated receptor alpha (Homo sapiens) (UniProt Q07869)) of entry O=C(O)c1cccc(NCc2ccc(OCc3ccc(F)cc3)c(F)c2)c1
A: 1.7

----------
tested_on: Peroxisome proliferator-activated receptor alpha (Homo sapiens) (UniProt Q07869)
assay_details: Agonist activity at human PPARalpha expressed in nonhuman mammalian cells assessed as maximal increase in receptor transcriptional activity incubated for 22 to 24 hrs by luciferase reporter gene assay relative to GW590735
Type: cell-based
value_type: fold change (FC)
Write the number on its own, no unit after it.

• O=C(O)c1cccc(NCc2ccc(OCc3ccccc3F)cc2)c1 = 1

Q: Name the reported fold change (FC) value associated with the compound Cc1cc(CNc2cccc(OC(C)(C)C(=O)O)c2)ccc1OCc1ccc(F)cc1
A: 1.6

Q: Name the reported fold change (FC) value associated with the compound O=C(O)c1cc(F)cc(NCc2ccc(OCc3ccc(F)cc3)c(Cl)c2)c1
A: 1.8

Q: Name the reported fold change (FC) value associated with the compound Cc1nc(-c2ccc(C(F)(F)F)cc2)sc1C(=O)NCc1ccc(OC(C)(C)C(=O)O)cc1
A: 1

Q: Name the reported fold change (FC) value associated with the compound O=C(O)c1cc(NCc2ccc(OCc3ccc(F)cc3)cc2)ccc1F
A: 1.2

Q: Name the reported fold change (FC) value associated with the compound CC(C)(Oc1cccc(NCc2ccc(OCc3ccc(C(F)(F)F)cc3)cc2)c1)C(=O)O
A: 1.2

----------
tested_on: Peroxisome proliferator-activated receptor alpha (Homo sapiens) (UniProt Q07869)
assay_details: Agonist activity at human PPARalpha expressed in nonhuman mammalian cells assessed as maximal increase in receptor transcriptional activity incubated for 22 to 24 hrs by luciferase reporter gene assay relative to GW590735
Assay type: cell-based
value_type: fold change (FC)
Write the number on its own, no unit after it.

* NS(=O)(=O)c1cccc(NCc2ccc(OCc3ccc(F)cc3)cc2)c1 | 0.1
* O=C(O)c1cccc(NCc2ccc(OCc3ccc(Cl)cc3)cc2)c1 | 1.5
* O=C(O)c1cc(Cl)cc(NCc2ccc(OCc3ccc(F)cc3)cc2)c1 | 1.1
* Cc1ccc(C(=O)O)cc1NCc1ccc(OCc2ccc(F)cc2)cc1 | 0.3
* C[C@@H](Oc1ccc(CNc2cccc(C(=O)O)c2)cc1)c1ccc(F)cc1 | 0.6
* Cc1cc(CNc2cccc(C(=O)O)c2)ccc1OCc1ccc(F)cc1F | 1.4

Q: Name the reported fold change (FC) value associated with the molecule O=C(O)c1cccc(NCc2ccc(OCc3ccc(F)cc3)cc2OCc2ccc(F)cc2)c1
A: 1.2

Q: Name the reported fold change (FC) value associated with the molecule Cc1cc(CN(C)c2cccc(C(=O)O)c2)ccc1OCc1ccc(F)cc1
A: 2.1

Q: Name the reported fold change (FC) value associated with the molecule O=C(O)c1ccc(NCc2ccc(OCc3ccc(F)cc3)cc2)cc1
A: 0.4

----------
tested_on: Peroxisome proliferator-activated receptor alpha (Homo sapiens, UniProt Q07869)
Threshold-based label: EC50 under 900 nM gives condition met, EC50 not under 900 nM gives condition not met.

* O=C(O)c1cccc(NCc2ccc(OCc3ccc(F)cc3F)cc2)c1 | condition met
* O=C(O)c1cc(NCc2ccc(OCc3ccc(F)cc3)cc2)ccc1F | condition not met
* O=C(O)c1cccc(NCc2ccc(OCc3cccc(F)c3)cc2)c1 | condition not met
* O=C(O)c1cccc(NCc2ccc(OCc3ccc(F)cc3)c(OCc3ccc(F)cc3)c2)c1 | condition met
* Cc1cc(CN(C)c2cccc(C(=O)O)c2)ccc1OCc1ccc(F)cc1 | condition met
* O=C(O)c1cccc(NCc2ccc(OCc3ccc(F)cc3)cc2OCc2ccc(F)cc2)c1 | condition not met
* Cc1cc(CNc2cccc(C(=O)O)c2)ccc1OCc1ccc(F)cc1 | condition met
* COc1ccc(COc2ccc(CNc3cccc(C(=O)O)c3)cc2)cc1 | condition not met

Q: Determine if O=C(O)c1cccc(NCc2ccc(OCc3ccc(F)c(F)c3)cc2)c1 shows EC50 strictly lower than 900 nM.
A: condition met

Q: Determine if O=C(O)c1cc(F)cc(NCc2ccc(OCc3ccc(F)cc3)c(Cl)c2)c1 shows EC50 strictly lower than 900 nM.
A: condition met

Q: Determine if O=C(O)c1cccc(NCc2ccc(OCc3ccc(C(F)(F)F)cc3)cc2)c1 shows EC50 strictly lower than 900 nM.
A: condition not met

Q: Determine if O=C(O)c1cc(Br)cc(NCc2ccc(OCc3ccc(F)cc3)cc2)c1 shows EC50 strictly lower than 900 nM.
A: condition not met

Q: Determine if CC(C)(Oc1ccc(CNc2cccc(C(=O)O)c2)cc1)c1ccc(F)cc1 shows EC50 strictly lower than 900 nM.
A: condition not met

Q: Determine if C[C@@H](Oc1ccc(CNc2cccc(C(=O)O)c2)cc1)c1ccc(F)cc1 shows EC50 strictly lower than 900 nM.
A: condition not met

Q: Determine if O=C(O)c1cccc(NCc2ccc(OCc3ccc(I)cc3)cc2)c1 shows EC50 strictly lower than 900 nM.
A: condition not met
